test system: DU-145 prostate; test: NCI tumour cell line growth inhibition, 48 h
readout: TGI

INPUT: Give me measured TGI, please, for this compound: `C=C(C)[C@@H](C(=O)OC)N1C(=O)c2ccccc2C1=O`
OUTPUT: > 100 µM

INPUT: Give me measured TGI, please, for this compound: `Cc1cc(C)cc(Nc2nnc3n2S(=O)(=O)c2cc(C#N)c(Cl)cc2S3)c1`
OUTPUT: 12.5 µM

INPUT: Give me measured TGI, please, for this compound: Cc1ccc(S(=O)(=O)OC2C3OC(C)(C)OC3OC2C(c2cc(O)c3c(c2O)C(=O)c2ccccc2C3=O)c2cc(O)c3c(c2O)C(=O)c2ccccc2C3=O)cc1 (stereo not given)
OUTPUT: > 10 µM

INPUT: Give me measured TGI, please, for this compound: `C=CCNc1ccc(C)cc1`
OUTPUT: > 100 µM

INPUT: Give me measured TGI, please, for this compound: `NCCCCn1c2c(c3ccccc3c1=O)C(=O)c1ccccc1-2`
OUTPUT: 0.498 µM
